Entry source: patent US20240124585A1

# target_entity: T1, human CD3 on T-cell lines (CD3-expressing Jurkat cells; HUT78 cells) (human, UniProt P07766 23-207)
# T1 construct: On cells it stands in the CD3/TCR complex
# protocol_summary: flow cytometry, HUT78 cells
result_type: Kd (nM)
Reply numerically in nM, unit not repeated.

Solved cases (2 shown):
SRP 2037-B10 F29D/LC6 (antibody, human IgG1, kappa, V domains shown, human IgG1, kappa) VH: EVQLVESGGGLVKPGGSLRLSCAASGFTDNKYAMNWVRQAPGKGLEWVARIRTKYNNYATYYADSVKDRFTISRDDSKNTAYLQMNSLKTEDTAVYYCVRHGNFGNSYISYWAYWGQGTPVTVSS VL: DIQMTQSPSSLSASVGDRVTITCGSSTGAVTSGYYPNWLQQKPGQAPRGLIGGTKFLAPGVPSRFSGSLSGGKATLTISSLQPEDFATYYCALWYSNRWVFGGGTKVEIKR | 3.72
2037-B10_Hc-Y55D (antibody, human IgG1, lambda, V domains shown, human IgG1, lambda; also called SRP 2037 Y55D; 2037-B10_VH-Y55D) VH: EVQLVESGGGLVKPGGSLRLSCAASGFTFNKYAMNWVRQAPGKGLEWVARIRTKDNNYATYYADSVKDRFTISRDDSKNTAYLQMNSLKTEDTAVYYCVRHGNFGNSYISYWAYWGQGTPVTVSS VL: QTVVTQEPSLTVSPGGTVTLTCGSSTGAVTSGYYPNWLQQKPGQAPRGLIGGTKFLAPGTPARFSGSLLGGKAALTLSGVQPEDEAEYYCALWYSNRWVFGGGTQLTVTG | 9.36

Shift focus to the following entry.
Give the measured Kd of SRP 2037-B10 F104D/LC5 (antibody, human IgG1, kappa, V domains shown, human IgG1, kappa) VH: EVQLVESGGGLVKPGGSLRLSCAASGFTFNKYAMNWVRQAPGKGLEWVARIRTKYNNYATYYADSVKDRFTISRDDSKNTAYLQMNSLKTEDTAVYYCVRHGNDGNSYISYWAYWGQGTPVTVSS VL: DTQVTQSPSLSASVGDRVTITCGSSTGAVTSGYYPNWLQQKPGQAPRGLIGGTKFLAPGVPSRFSGSGSGTDFTLTISSLQPEDFATYYCALWYSNRWVFGGGTKVEIKR .
226
